- TARGET: T1, TJP3_3, O95049
- T1 sequence (O95049 375-456, limits assumed, looked up): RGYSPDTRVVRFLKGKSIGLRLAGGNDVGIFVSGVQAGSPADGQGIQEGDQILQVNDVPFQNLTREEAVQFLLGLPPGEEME
- ASSAY NOTES: holdup assay
- Set-up: key: below the threshold = too weak to quantify, mostly under pKd 3.1 to 4
- RUN PARAMETERS: plain residues with an end cap or a label only (N-terminal biotin on a linker: ado-ado)
EXPERIMENTAL ENDPOINT: pKd

Some entries whose results are on file:
| BINDER | pKd |
| --- | --- |
| WAKEKQHTRL [SLC17A1, Q14916] | below the threshold |
| PSVYSRSQYV [CLDN8, P56748] | 3.82 |
| QQGLLPHSSC [TYRO3, Q06418] | below the threshold |
| RSPVATATSC [DUSP5, Q16690] | below the threshold |
| PLATCDETSI [SEMA4F, O95754] | below the threshold |
| NTALVESEDL [PALLS, Q8WX93;Q8WX93-1] | below the threshold |

Now, please, on to the next binder.
input: // fetch pKd given entry GSQSQVETEA [FKBP4, Q02790]
output: below the threshold
